Tested on: MS2 coat protein
Measurement Description: apparent KD of MS2 coat protein; designed switch direction (-1 OFF switch, 1 ON switch): -1; higher = weaker reporter binding
Condition Summary: input ligand: none
Would you please tag the item 1 when its apparent KD of MS2 coat protein is 20 nM or above, and 0 when it is below?

Could you please find out whether UUAAAUCAUGUAGGAUAUGCGUGGCGAAGCUAUGCAGAAGGACAUGAGGAUCACCCAUGUCUUUCCGUCUGCGUACAGAUGGAG [JL Eng1 1.08 mod 4] (Eterna round: R96, puzzle: Exclusion NG 1) has apparent KD of MS2 coat protein that meets 20 nM or exceeds it?
1

Another sequence to look at: CCUAGUGUCGGAGGAUAUCCUACACAAACCUUAGGAGAAGGCCGACAUGAGGAUCACCCAUGUAAAACCUAAACCUAAAAUCAA [Raesusbi] (Eterna round: R96, puzzle: Exclusion NG 1)
0

Another sequence to look at: AGUCGGUCAGGAUAUGCAAACGUGGACAUGAGGAUCACCCAUGUAACGUGGGCCUGGUUUGUAGAAGGGACGAGCA [EX5 #86] (Eterna round: R97, puzzle: Exclusion 5)
1

Another sequence to look at: GGCCCAUGAGGAUAUCAGUCUGGAUCAGACAAGAUCCUGACUGAGAAGGCACAUGAGGAUCACCCAUGUAGGCC [Mat - Exclusion 4 - Eli Mod - D53] (Eterna round: R97, puzzle: Exclusion 4)
0

Another sequence to look at: UUUUUGUAUGAAGGAUAUACUUAACAUGAGGAUCACCCAUGUGGUGUUGUGAGUGAGUGAGUUUAGUAGAAGGUCAAUUAUUUU [JMF's solution 24] (Eterna round: R96, puzzle: Exclusion NG 2)
1

* * *

Tested on: MS2 coat protein
Measurement Description: apparent KD of MS2 coat protein; higher = weaker reporter binding
Condition Summary: Eterna round: R107; input ligand: tryptophan 2.4 mM
Lab note: class by apparent KD of MS2 coat protein, see A (below 40 nM), B (40 nM to below 100 nM), C (100 nM or more)

Hi, small favor: classify GGCUAGUGCAUCGAUACCAGCUACAUGAGGAUCACCCAUGUAGGAAGGGUGGCACUCGAUAGCCCUUGGCAGCGAACACCUCCGG [Cebebion] by its apparent KD of MS2 coat protein when you get a moment.
A

Another sequence to look at: AACGUAUACAGAAGGAGCGUGAUUUAUAUUUCUUUAACAUAUACAUGAGGAUCACCCAUGUCACAGGUAGGUCGCUGUAUUCGUA [JR_ExcArginiB_Sub023]
A

Another sequence to look at: ACGAUAGGACCUGAGGAUCACCCAGGUGAUACCAGCCUGGAAACAGGCCCUUGGCAGCACCAAUACUCCAAUAACCUAUCGAAUA [TheoAX 11 #MicroSwitchBubble #AlternativeMS2]
C

Another sequence to look at: GGUGGCUGGACUGAUACCAGCCACCACCGAUAGACCACAUGAGGAUCACCCAUGUUGGGUGGCCCUUGGCAGCAGUCCAGCUGCC [#1 Same State - Theophylline B Attempt #10 (HarryS)]
C

Another sequence to look at: CUGGACAUGAGGAUCACCCAUGUAAAUCCUCGAGGACCGGUACGGCCGCCACUCGAACGAGUGGCGCGCGCGCGCGCGCGCGCGC [aIa]
B

Another sequence to look at: CGUCGAAACUGAAGGAGCGAGAUGACAACAUUGGGUCUAACAUGAGGAUCACCCAUGUAAUCUCAGGUAGGUCGCGGUGUCAACA [Exclusion Arginine B GF18]
B

Another sequence to look at: AUCGUACCUGAGGAUACCAGCAUGUGAUCAUAACAUGAGGAUCACCCAUGUAAUCAGUGAUGCCCUUGGCAGCUUGGUCGAUACA [Same State - Theophylline B (Freestyle 9)]
B

Another sequence to look at: AAUAAUAACAUGGGUGAAGUCGUACCAUAACGAGGACCGGUACGGCCGCCACUCGAACAUGAGGAUCACCCAUGUAGGUACGACA [M'-T'-T-MS2-T'' - Design 9]
B

Another sequence to look at: UCCUCCUCCGGAAGGAGGAGGAGUUGCGAUACCAGCCCGGAAACGGGCCCUUGGCAGCGCACAUGAGGAUCACCCAUGUCAUGUU [#1 Exclusion - Theophylline A Attempt #7 (HarryS)]
A

Another sequence to look at: AUUUUUCUAUCAGAUACCAGACAAUUUUAGACAUGAGGAUCACCCAUGUAUAGGGUGUUCGUCCCUUGGCAGCUGUUAAGUUUAA [JR_SSTheophyB_Sub004]
C

Another sequence to look at: AACGUAUACAGAAGGAGCGUGAAUUAUAUUACUCAUUCUUAUACAUGAGGAUCACCCAUGUCACAGGUAGGUCGCUGUAUUCGUA [JR_ExcArginiB_Sub019]
B

Another sequence to look at: ACAUAUUGGUGGUACCAACGAAGGCGGAAACGAGGACCGGUACGGCCGCCACUCGGCGACAUGAGGAUCACCCAUGUGGUUAAAA [Exclusion - Tryptophan A (Freestyle 2)]
C

Another sequence to look at: CAUUAUGUAACUGAUACCAGUGUACUGACAUGAGGAUCACCCAUGUUGGGUUUUGUUGUACACCCUUGGCAGCAGAAUCAUAAUG [AstrosExyTheB#2]
B

Another sequence to look at: ACGCCCAGGUAGGCUUAGUGGGAAAUGGAAGGAGCGCUGAUGCAAGCAGGUAGGUCGCCAACGAACAUGAGGAUCACCCAUGUAA [Same State - Arginine A (Freestyle 1)]
A

Another sequence to look at: AGAGUUAGACAAAAGUCUAGCUCACCAGAAGGAGCGUCCGAAAGGACAGGUAGGUCGCUGGUACAUGAGGAUCACCCAUGUUCCU [ArgAS 8 #OpenEnded]
B

Another sequence to look at: GCUGCCAUACGAAGGAGCGCUGCUGCGAUGUGGCGAACAUGAGGAUCACCCAUGUGGCAGCAGCAGGUAGGUCGCGUAUGGCAGC [#01 Exclusion - Arginine B]
C

Another sequence to look at: ACGCUGAUUGAUUACAAUCAGCGAAAAGAUACCAGUGGGUAAUCCCACCCUUGGCAGCUUAAACAAGAGGAUCACCCUUGUGGUA [TheoAS 16 #MS2Right #BothOrNeither #AlternativeMS2]
C

Another sequence to look at: `UGUAUGUGAUCUGAUACCAGAGUGAAUAAACCUGAGGAUCACCCUGGUAGGCGAAAGCCACUCCCUUGGCAGCAGAUCGCAUACU`
C

Another sequence to look at: UCGCUCUGGGUGAGAUCCGGAGAUAUGGAAGGAGCGCUGAUUCCAGCAGGUAGGUCGCCAACGGACAUGAGGAUCACCCAUGUAC [Same State - Arginine A (Freestyle 11)]
B

Another sequence to look at: GUCCUCAGCCGAAGGAGCGCUAGAAGAUGACAUGAGGAUCACCCAUGUGUGUGAUGUGGCUAGCAGGUAGGUCGCGGAGAGGAUU [Exclusion - Arginine B (Freestyle 16)]
A

Another sequence to look at: AAUAAGCAGCUGCAUCAUGGGUGAGCAGAUACCAGCUAGGAAACUAGCCCUUGGCAGCUGCAACAUGAGGAUCACCCAUGUAAUA [(T)'-(M)'-(T1)-(T2)-(M1)-(M2)_Design5]
A

* * *

System: K4 kissing-loop RNA reporter;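 also: bound reporter read as fluorescence of individual clusters on recovered sequencing chips by microscopy, with normalized cluster intensities fitted with a binding model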
Measurement Description: apparent KD of K4 kissing-loop reporter; higher = weaker reporter binding
Condition Summary: Eterna round: R107; input ligand: FMN 200 uM
Would you please tag the item Yes when its apparent KD of K4 kissing-loop reporter is 100 nM or above, and No when it is below?

Could you please find out whether AAGUGAUGUUGUAGUGAUGUUGUGAUGUUGCAGGAUAUAUAGUGAUGUAGAAGGGUAUGUGCAGUGUUGUUGUUUGAGUGUUGAU [twwumullin] has apparent KD of K4 kissing-loop reporter that meets 100 nM or exceeds it?
No

Another sequence to look at: AUUAUAUAGGCGGCCGCCACUAGUGAUGUUAGUGACUAUAUGAAAACAUAUAGAAUAAAAUAAUAUAGGACCGGGCCAUAAUAUU [AstrosExTryB#4]
Yes

Another sequence to look at: UGAUAGGACAGAAGGAGCGGGAGUGAUGUUCCCAAUAAAAGGUCUAGCAAAGCUAGACCCUCCCAGGUAGGUCGCUGUCCUAUCU [ArgBX 2 #Palindromic #SwitchBubble #StaticStem]
Yes

Another sequence to look at: GUGCGGUGGAGGUUACCGCUAUUCUGAGAAGGAGCGCAGAUGACUGCAGGUAGGUCGCUUAGAGCUUGCAGUGAUGUUGCAAGUU [Berienza]
Yes

* * *

Tested on: MS2 coat protein
Measurement Description: apparent KD of MS2 coat protein; higher = weaker reporter binding
Condition Summary: Eterna round: R107; input ligand: arginine 13.2 mM
Would you please tag the item y when its apparent KD of MS2 coat protein is 40 nM or above, and n when it is below?

Could you please find out whether UCAGUGCAGGGAAGGAGCGGGUACAUGAGGAUCACCCAUGUGCAAGUGGUGAGCGUCCGUGCCCAGGUAGGUCGCCCAGCCUGGU [Atarteedon] has apparent KD of MS2 coat protein that meets 40 nM or exceeds it?
y

Another sequence to look at: CGCACAGAGAAUGAUACCAGCGAGGAAGCGACAUGAGGAUCACCCAUGUGCGAAUGAUCCCGCCCUUGGCAGCGUAAGUGAUCCC [ss-theoB-?]
y

Another sequence to look at: GCACCAGGUACGGAUACCAGCUGCUCGAGAUACAUGAGGAUCACCCAUGUGACCUGGUUUAGCCCUUGGCAGCUGUACCUGGUGC [#15 Same State - Theophylline B]
n

Another sequence to look at: UUAUAAGUACCGGUCCUCAGAUCCUCAUGACGAGGACCGGUACGGCCGCCACUCGAAACAUGAGGAUCACCCAUGUAAUAAUAAC [Brourdmod04]
n

Another sequence to look at: ACGAUAGGACCUGAGGAUCACCCAGGUGAUACCAGCCUGGAAACAGGCCCUUGGCAGCACCAAUACUCCAAUAACCUAUCGAAUA [TheoAX 11 #MicroSwitchBubble #AlternativeMS2]
y

Another sequence to look at: CCUAUUCCUACGGAUACCAGACGAUCCGUGGCGUGUGUGAACAUGAGGAUCACCCAUGUAGUCCCUUGGCAGCCGAUGCGGGUAA [theeternabot_exclusion_MS2_Theo_B_10]
n
